experimental.protocol: NCI Yeast Anticancer Drug Screen. Data for the cln2 rad14 strain (AID 165);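 note: 0% = growth equal to vehicle treated cultures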
condition.details: S. cerevisiae cln2 rad14 strain, at 50.0 µM, hits give high values
About 79,000 compounds went through this panel and 15% of them were active in at least one assay; those are over-represented in the sample as a whole.
endpoint.name: growth inhibition (%)
Give just the number in %; leave the unit off.

O=C(NC12CC3CC(CC(C3)C1)C2)C(=O)c1c[nH]c2ccc(Br)cc12
-21.4

Entry `COc1ccccc1NC(C)=O` needs its growth inhibition filled in; supply it.
6

Entry `CC1=NC(=O)CNN1C1=NNC2(C(=O)N1)c1ccccc1-c1ccccc12` needs its growth inhibition filled in; supply it.
0.85

Entry `CCN(CC)CCOC(=O)Nc1cc(C)cc(C)c1` needs its growth inhibition filled in; supply it.
16.4

Entry `CCC(CC)(CC#N)C1CCCCC1` needs its growth inhibition filled in; supply it.
-13.8

Entry `CCCNc1ncnc2[nH]ncc12` needs its growth inhibition filled in; supply it.
-23

Entry `CC(=O)Nc1ccccc1C` needs its growth inhibition filled in; supply it.
-5.65

----------
The following molecules are shown together with reported growth inhibition values.
experimental.protocol: NCI Yeast Anticancer Drug Screen. Data for the mlh1 rad18 strain (AID 175)
condition.details: S. cerevisiae mlh1 rad18 strain growth inhibition; at 50.0 µM; hits give high values
Compounds without any hit were thinned out: in the full panel of roughly 79,000, 15% have a hit.
Give just the number in %; leave the unit off.

For orientation, consider the following solved cases.
S=C(Nc1ccc2ccccc2c1)Nc1ccc2ccccc2c1
-2
OC(CSCc1ccccc1)c1ccccc1 (centres undefined)
3.1
N#C/C(=C\c1ccc(Cl)cc1)c1nc2ccccc2c(=O)[nH]1
-53.2
c1ccc(CCOC(c2ccccc2)(c2ccccc2)c2ccccc2)cc1
-26.2
O=C(CCCc1ccccc1)NO
13.6

Moving on to another molecule below.
Entry `CCCCCSC1CCCC1` needs its growth inhibition filled in; supply it.
28.7

----------
experimental.protocol: NCI Yeast Anticancer Drug Screen. Data for the sgs1 mgt1 strain (AID 161);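 note: 0% = growth of cultures given vehicle only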
condition.details: S. cerevisiae sgs1 mgt1 strain, at 50.0 µM, hits give high values
Compounds without any hit were thinned out: in the full panel of roughly 79,000, 15% have a hit.
endpoint.name: growth inhibition (%)
Give just the number in %; leave the unit off.

CC(=O)OCC1OC(OC(C)=O)C(Nc2ncnc3nc[nH]c23)C(OC(C)=O)C1OC(C)=O (centres undefined)
49.9
Cc1cn2cc(-c3cccs3)nc2s1
19.4
O=C(O)CC(c1ccccc1)C(CC(=O)O)c1ccccc1.[NH-]C1CCCCC1[NH-].[Pt+2] (centres undefined)
-49.9

Entry CC1(C)C2C=CC1(C)C1(CC2)OCCO1 (centres undefined) needs its growth inhibition filled in; supply it.
-20.5

Entry `CCCCCCCCCCCCCCCc1ccc([N+](=O)[O-])c(O)c1` needs its growth inhibition filled in; supply it.
7.1

Entry `C#CN1C(=O)c2c(c(-c3ccccc3)c(-c3ccc(Oc4ccc(-c5c(-c6ccccc6)c6c(c(-c7ccccc7)c5-c5ccccc5)C(=O)N(C#C)C6=O)cc4)cc3)c(-c3ccccc3)c2-c2ccccc2)C1=O` needs its growth inhibition filled in; supply it.
1.9

Entry `Cc1nc2c(cnn2C)c(=O)n1-c1ccccc1Cl` needs its growth inhibition filled in; supply it.
11.8

Entry `CN=C(c1ccccc1)N(O)c1ccccc1` needs its growth inhibition filled in; supply it.
-8.15
